Task for the reader: assign each of the following sequences its reported shrunken log2 fold change.
# Tested on: Escherichia coli TOP10;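 also: peptides expressed intracellularly from a pBAD plasmid library in pooled LB shake-flask culture, induced with 0.3% L-arabinose, DNA abundance read by NGS, three biological replicates, DESeq2 with apeglm shrinkage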
# Assay info: shrunken log2 fold change of peptide-encoding DNA abundance (4.5 h post-induction vs induction); higher = less antimicrobial activity (less host growth inhibition)
# Condition context: time post-induction: 4.5 h; library: site-saturation at positions 5, 18, 19, 20
Give bare numbers.

See these solved cases before continuing.
So what's the measured shrunken log2 fold change for this one? `RRIRMRPPRLPRPRPRPMVHPRP`
0.0734

So what's the measured shrunken log2 fold change for this one? `RRIRFRPPRLPRPRPRPVDHPRP`
-0.179

So what's the measured shrunken log2 fold change for this one? `RRIRRRPPRLPRPRPRPCCPPRP`
0.467

So what's the measured shrunken log2 fold change for this one? `RRIRRRPPRLPRPRPRPMWRPRP`
0.312

So what's the measured shrunken log2 fold change for this one? `RRIRQRPPRLPRPRPRPVARPRP`
0.0118

Provide shrunken log2 fold change values for the following items, in order.
1. RRIRNRPPRLPRPRPRPPPQPRP
2. RRIRERPPRLPRPRPRPCFCPRP
3. RRIRNRPPRLPRPRPRPVWMPRP
4. RRIRDRPPRLPRPRPRPCVDPRP
5. RRIRPRPPRLPRPRPRPINYPRP
6. RRIRYRPPRLPRPRPRPNNYPRP

1. 0.931
2. -0.318
3. -0.0917
4. 0.0635
5. -0.402
6. -1.22

Provide shrunken log2 fold change values for the following items, in order.
1. RRIRPRPPRLPRPRPRPAPNPRP
2. RRIRKRPPRLPRPRPRPQHTPRP
3. RRIRTRPPRLPRPRPRPNKNPRP
4. RRIRQRPPRLPRPRPRPWFWPRP
5. RRIRIRPPRLPRPRPRPEWGPRP

1: 1.16; 2: 0.0113; 3: -0.156; 4: 0.00186; 5: -0.0166
